Consider the following variants; for each one, report its FACS-Seq fitted mean (log10).
B1: library; a variant is named by its letters at N, in order (parent)
chain: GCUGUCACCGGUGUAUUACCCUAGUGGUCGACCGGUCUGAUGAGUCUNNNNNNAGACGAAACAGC

# Variants of: B1
# test: FACS-Seq fitted mean relative fluorescence mCherry/BFP with ligand (log10 relative fluorescence); ligand: hypoxanthine (xanthine aptamer); ligand concentration (+) FACS-Seq: 5 mM; higher = higher reporter protein expression
# assay.setup: HEK293T, ligand present: yes
Form field (numeric): enter value without unit.

q: Need FACS-Seq fitted mean (log10), item GCUGUCACCGGUGUAUUACCCUAGUGGUCGACCGGUCUGAUGAGUCUAGCUUGAGACGAAACAGC
a: 0.64

q: Entry GCUGUCACCGGUGUAUUACCCUAGUGGUCGACCGGUCUGAUGAGUCUUAAUUAAGACGAAACAGC please
a: 0.65

q: // same read-out, input: GCUGUCACCGGUGUAUUACCCUAGUGGUCGACCGGUCUGAUGAGUCUUGUGACAGACGAAACAGC
a: 0.42

q: What about GCUGUCACCGGUGUAUUACCCUAGUGGUCGACCGGUCUGAUGAGUCUAUAUAAAGACGAAACAGC ?
a: 0.645

q: Also GCUGUCACCGGUGUAUUACCCUAGUGGUCGACCGGUCUGAUGAGUCUAGAAUGAGACGAAACAGC ?
a: -0.0321

q: And then GCUGUCACCGGUGUAUUACCCUAGUGGUCGACCGGUCUGAUGAGUCUUAUUGGAGACGAAACAGC , what is it?
a: 0.745

q: Now the same for GCUGUCACCGGUGUAUUACCCUAGUGGUCGACCGGUCUGAUGAGUCUUAGGAAAGACGAAACAGC
a: 0.483

q: And what about the variant GCUGUCACCGGUGUAUUACCCUAGUGGUCGACCGGUCUGAUGAGUCUCGAGGGAGACGAAACAGC ?
a: 0.0226

q: What would you report for GCUGUCACCGGUGUAUUACCCUAGUGGUCGACCGGUCUGAUGAGUCUACUAGAAGACGAAACAGC ?
a: 0.429

q: Next entry: GCUGUCACCGGUGUAUUACCCUAGUGGUCGACCGGUCUGAUGAGUCUUAAAGCAGACGAAACAGC
a: 0.694

q: Follow-up item: GCUGUCACCGGUGUAUUACCCUAGUGGUCGACCGGUCUGAUGAGUCUGCCGAGAGACGAAACAGC
a: 0.591

q: Next variant up: GCUGUCACCGGUGUAUUACCCUAGUGGUCGACCGGUCUGAUGAGUCUGACUAUAGACGAAACAGC
a: 0.377

q: Can you handle GCUGUCACCGGUGUAUUACCCUAGUGGUCGACCGGUCUGAUGAGUCUGAGGCUAGACGAAACAGC next?
a: 0.721

q: Subsequent entry: GCUGUCACCGGUGUAUUACCCUAGUGGUCGACCGGUCUGAUGAGUCUUGCCGGAGACGAAACAGC
a: -0.119

q: Input GCUGUCACCGGUGUAUUACCCUAGUGGUCGACCGGUCUGAUGAGUCUACUGGAAGACGAAACAGC
a: 0.587

q: Cool, now GCUGUCACCGGUGUAUUACCCUAGUGGUCGACCGGUCUGAUGAGUCUAACUACAGACGAAACAGC
a: 0.653

q: Try the variant GCUGUCACCGGUGUAUUACCCUAGUGGUCGACCGGUCUGAUGAGUCUCAAAUAAGACGAAACAGC
a: 0.196

q: Another variant to check: GCUGUCACCGGUGUAUUACCCUAGUGGUCGACCGGUCUGAUGAGUCUUGCAAAAGACGAAACAGC
a: 0.635

q: Again, but for GCUGUCACCGGUGUAUUACCCUAGUGGUCGACCGGUCUGAUGAGUCUGUAAGGAGACGAAACAGC
a: 0.408

q: Same again, this time with GCUGUCACCGGUGUAUUACCCUAGUGGUCGACCGGUCUGAUGAGUCUCUGCGCAGACGAAACAGC
a: 0.18

q: Query GCUGUCACCGGUGUAUUACCCUAGUGGUCGACCGGUCUGAUGAGUCUCAAGUCAGACGAAACAGC next
a: 0.635

q: Would you kindly repeat that for GCUGUCACCGGUGUAUUACCCUAGUGGUCGACCGGUCUGAUGAGUCUUCCACGAGACGAAACAGC ?
a: 0.0232

q: Same read-out for GCUGUCACCGGUGUAUUACCCUAGUGGUCGACCGGUCUGAUGAGUCUAUAAGGAGACGAAACAGC ?
a: 0.345

q: // next record GCUGUCACCGGUGUAUUACCCUAGUGGUCGACCGGUCUGAUGAGUCUUACAAUAGACGAAACAGC
a: 0.708

q: Same again, this time with GCUGUCACCGGUGUAUUACCCUAGUGGUCGACCGGUCUGAUGAGUCUAGCGCGAGACGAAACAGC
a: 0.359

q: One more variant: GCUGUCACCGGUGUAUUACCCUAGUGGUCGACCGGUCUGAUGAGUCUCAAGGCAGACGAAACAGC
a: -0.0781

q: Now give it for GCUGUCACCGGUGUAUUACCCUAGUGGUCGACCGGUCUGAUGAGUCUCAACUAAGACGAAACAGC too.
a: 0.695

q: Proceed to GCUGUCACCGGUGUAUUACCCUAGUGGUCGACCGGUCUGAUGAGUCUGGAAAGAGACGAAACAGC
a: 0.711

q: Also check GCUGUCACCGGUGUAUUACCCUAGUGGUCGACCGGUCUGAUGAGUCUAAUACGAGACGAAACAGC
a: 0.609

q: // same read-out, input: GCUGUCACCGGUGUAUUACCCUAGUGGUCGACCGGUCUGAUGAGUCUAUAAUAAGACGAAACAGC
a: -0.134

q: Now consider GCUGUCACCGGUGUAUUACCCUAGUGGUCGACCGGUCUGAUGAGUCUAAGGGCAGACGAAACAGC and answer again.
a: 0.576

q: And then GCUGUCACCGGUGUAUUACCCUAGUGGUCGACCGGUCUGAUGAGUCUAAACCCAGACGAAACAGC , what is it?
a: 0.431

q: Then GCUGUCACCGGUGUAUUACCCUAGUGGUCGACCGGUCUGAUGAGUCUAUGAAAAGACGAAACAGC ?
a: 0.625

q: For GCUGUCACCGGUGUAUUACCCUAGUGGUCGACCGGUCUGAUGAGUCUGGGCGGAGACGAAACAGC then?
a: 0.586

q: Then GCUGUCACCGGUGUAUUACCCUAGUGGUCGACCGGUCUGAUGAGUCUCACCACAGACGAAACAGC ?
a: 0.406

q: Would you mind doing GCUGUCACCGGUGUAUUACCCUAGUGGUCGACCGGUCUGAUGAGUCUAUAGUGAGACGAAACAGC as well?
a: 0.348

q: Then GCUGUCACCGGUGUAUUACCCUAGUGGUCGACCGGUCUGAUGAGUCUGGUGAGAGACGAAACAGC ?
a: 0.303

q: Field entry: GCUGUCACCGGUGUAUUACCCUAGUGGUCGACCGGUCUGAUGAGUCUGGAUAGAGACGAAACAGC
a: 0.508

q: GCUGUCACCGGUGUAUUACCCUAGUGGUCGACCGGUCUGAUGAGUCUUCUAAAAGACGAAACAGC , same question.
a: 0.0897

q: Next record, please: GCUGUCACCGGUGUAUUACCCUAGUGGUCGACCGGUCUGAUGAGUCUCCGCAGAGACGAAACAGC
a: 0.638

q: And the next one, GCUGUCACCGGUGUAUUACCCUAGUGGUCGACCGGUCUGAUGAGUCUGUAAGCAGACGAAACAGC ?
a: 0.667

q: Check GCUGUCACCGGUGUAUUACCCUAGUGGUCGACCGGUCUGAUGAGUCUGCGAUUAGACGAAACAGC too.
a: 0.166

q: Next up: GCUGUCACCGGUGUAUUACCCUAGUGGUCGACCGGUCUGAUGAGUCUUUGUAUAGACGAAACAGC
a: -0.338

q: And the next one, GCUGUCACCGGUGUAUUACCCUAGUGGUCGACCGGUCUGAUGAGUCUUACAAGAGACGAAACAGC ?
a: 0.444

q: Next up: GCUGUCACCGGUGUAUUACCCUAGUGGUCGACCGGUCUGAUGAGUCUUGAGAAAGACGAAACAGC
a: 0.638

q: Try this variant next: GCUGUCACCGGUGUAUUACCCUAGUGGUCGACCGGUCUGAUGAGUCUCUGAAGAGACGAAACAGC
a: 0.669
